Biological target: T1, human TL1A extracellular domain with N-terminal HIS and FLAG tag (human, UniProt O95150 72-251)
T1 construct: the whole entry is named; also called TNFSF15
T1 sequence: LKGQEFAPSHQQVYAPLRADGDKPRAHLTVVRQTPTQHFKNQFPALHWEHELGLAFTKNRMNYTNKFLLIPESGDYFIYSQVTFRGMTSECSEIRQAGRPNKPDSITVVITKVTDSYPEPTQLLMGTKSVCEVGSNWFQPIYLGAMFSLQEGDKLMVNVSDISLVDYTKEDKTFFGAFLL
Experiment: SPR Run 7, antibody on Protein A, TL1A 5 ug/mL, timepoint 44
parameter: TL1A Binding Level (Early) (RU)
Write it as a number; the unit RU goes unstated.

Reference set, count: 2
binder: 320-540 (antibody, human IgG1, name in Kabat numbering, V domains shown, full-length human IgG1, lambda) VH: QVQLVQSGAEVKKPGASVKVSCKASGYTFTSYDINWVRQAPGQGLEWMGWLNPNSGSTGYAQKFQGRVTMTADRSTSTAYMELSSLRSEDTAVYYCAREVPETAAFEYWGQGTLVTVSS VL: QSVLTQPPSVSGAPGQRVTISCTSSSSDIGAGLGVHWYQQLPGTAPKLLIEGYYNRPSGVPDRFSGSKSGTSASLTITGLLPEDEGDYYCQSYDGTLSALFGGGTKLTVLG
output unit: RU
TL1A Binding Level (Early): 100
//
binder: 320-502 (antibody, human IgG1, name in Kabat numbering, V domains shown, full-length human IgG1, lambda) VH: QVQLVQSGAEVKKPGASVKVSCKASGYTFTSYDINWVRQAPGQGLEWMGWLKPNSGNTGYAQKFQGRVTMTADRSTSTAYMELSSLRSEDTAVYYCAREVPETAAFEYWGQGTLVTVSS VL: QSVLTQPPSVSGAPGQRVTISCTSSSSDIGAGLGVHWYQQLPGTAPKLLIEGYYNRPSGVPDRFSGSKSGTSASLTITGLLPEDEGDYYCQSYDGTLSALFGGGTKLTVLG
output unit: RU
TL1A Binding Level (Early): 88

Continue with the next binder.
## Task Give reported TL1A Binding Level (Early) value for 320-534 (antibody, human IgG1, name in Kabat numbering, V domains shown, full-length human IgG1, lambda) VH: QVQLVQSGAEVKKPGASVKVSCKASGYTFTSYDINWVRQAPGQGLEWMGWLNPNSDNTGYAQKFQGRVTMTADRSTSTAYMELSSLRSEDTAVYYCAREVPETAAFEYWGQGTLVTVSS VL: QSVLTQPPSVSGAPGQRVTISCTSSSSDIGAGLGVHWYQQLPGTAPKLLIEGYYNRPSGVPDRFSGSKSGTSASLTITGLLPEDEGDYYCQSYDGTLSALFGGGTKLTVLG
## Result 109
